System: JURKAT human T-cell line
ASSAY_PROCEDURE: Secondary assay: cell proliferation WST-1, Jurkat
Assay type: cell-based
PROTOCOL_CONDITIONS: Homo sapiens, Table 2, 48 h, read-out: Cell Proliferation Inhibition WST-1 (IC50 unless otherwise specified) Jurkat
Could you please report measured pIC50 for the items listed next?
One number for each entry, as −log10 of the molar value.

State recorded pIC50 for all listed molecules.
1. O=C(/C=C/c1cccc(S(=O)(=O)Nc2ccc(-c3ccccc3)cc2)c1)NO [PX117715]
2. COc1ccccc1NS(=O)(=O)c1cccc(/C=C/C(=O)NO)c1 [PX117227]
3. O=C(/C=C/c1ccc(S(=O)(=O)Nc2ccc3ccccc3c2)cc1)NO [PX117736]
4. CC(/C=C/C(=O)NO)=C\[C@@H](C)C(=O)c1ccc(N(C)C)cc1 [TSA, trichostatin A, reference compound]

6.54
6.44
6.92
7.38

----------
Test system: NHEK-Ad primary human adult keratinocyte line
ASSAY_PROCEDURE: Secondary assay: cell proliferation WST-1, NHEK-Ad
Type: cell-based
PROTOCOL_CONDITIONS: Homo sapiens, Keratinocyte, 48 h, read-out: Cell Proliferation Inhibition WST-1 (IC50 unless otherwise specified) NHEK-AD
READOUT_KIND: pIC50
Give bare numbers, as −log10 of the molar value.

| COMPOUND | pIC50 |
| --- | --- |
| O=C(/C=C/c1cccc(S(=O)(=O)Nc2cccc3ccccc23)c1)NO [PX117228] | 5.92 |

We next turn to a different compound, shown below.
State the recorded pIC50 for this entry: O=C(/C=C/C#Cc1cccc(NS(=O)(=O)c2ccccc2)c1)NO [Oxamflatin, reference compound] 5.45

----------
Tested on: HDAC (HeLa cell extract)
ASSAY_PROCEDURE: Primary assay: deacetylase activity, HeLa cell extract as source of HDAC
Type: biochemical, human
PROTOCOL_CONDITIONS: comparative tables, @ 500 nM
READOUT_KIND: HeLa, % @ 500 nM (% @ 500 nM)
Give bare numbers, in % @ 500 nM.

| COMPOUND | TEST_TARGET | REPORTED_VALUE |
| --- | --- | --- |
| O=C(CCCCCS(=O)(=O)Nc1ccccc1)NO [PX117234, 6-(Anilinosulfonyl)-N-hydroxyhexanamide] | HDAC (HeLa cell extract) | 59 |
| CN(c1ccccc1)S(=O)(=O)c1ccccc1/C=C/C(=O)NO | HDAC (HeLa cell extract) | 3 |
| O=C(/C=C/c1ccccc1S(=O)(=O)Nc1ccccc1)NO | HDAC (HeLa cell extract) | 9 |

Consider the additional compound presented here.
Endpoint output: HeLa, % @ 500 nM of `O=C(/C=C/c1ccccc1S(=O)(=O)Nc1cccc2ccccc12)NO` . Value? 3

----------
READOUT_KIND: melting point (°C)
Give bare numbers, in °C.

| COMPOUND | melting point (°C) |
| --- | --- |
| O=C(/C=C/c1cccc(NS(=O)(=O)/C=C/c2ccccc2)c1)NO | 171 |
| O=C(/C=C/c1cccc(S(=O)(=O)Nc2ccc(-c3ccccc3)cc2)c1)NO | 188 |
| O=C(/C=C/c1cccc(S(=O)(=O)NCc2ccco2)c1)NO | 165 |

Could you report melting point for every entry in the following list?
1. O=C(/C=C/c1cccc(S(=O)(=O)NC2Cc3ccccc3C2)c1)NO
2. O=C(/C=C/c1cccc(NS(=O)(=O)c2ccccc2)c1)NO
3. COc1cccc(NS(=O)(=O)c2cccc(/C=C/C(=O)NO)c2)c1

164
172
137

Would you mind giving melting point for every compound in the list below?
1. O=C(/C=C/c1cccc(S(=O)(=O)NC(Cc2ccccc2)c2ccccc2)c1)NO (stereo not shown)
2. O=C(/C=C/c1cccc(S(=O)(=O)NCCc2ccccc2)c1)NO
3. O=C(/C=C/c1cccc(S(=O)(=O)NCc2cccc3ccccc23)c1)NO

1. 150
2. 114
3. 177

----------
Tested on: JURKAT human T-cell line
ASSAY_PROCEDURE: Secondary assay: cell proliferation WST-1, Jurkat
Type: cell-based
PROTOCOL_CONDITIONS: Homo sapiens, Table 2, 48 h, read-out: Cell Proliferation Inhibition WST-1 (IC50 unless otherwise specified) Jurkat
For each of the compounds below, state its pIC50.
Give bare numbers, as −log10 of the molar value.

For each of the compounds below, note its pIC50.
1. COc1cccc(NS(=O)(=O)c2cccc(/C=C/C(=O)NO)c2)c1
2. O=C(/C=C/c1cccc(S(=O)(=O)Nc2ccc(OC(F)(F)F)cc2)c1)NO
3. O=C(/C=C/c1cccc(NS(=O)(=O)c2ccc(-c3ccccc3)cc2)c1)NO

1: 6.89; 2: 6.28; 3: 6.10

Please report pIC50 for every entry that follows.
1. O=C(/C=C/C#Cc1cccc(NS(=O)(=O)c2ccccc2)c1)NO [Oxamflatin, reference compound]
2. O=C(/C=C/c1cccc(S(=O)(=O)Nc2ccc3ccccc3c2)c1)NO
3. O=C(/C=C/c1cccc(S(=O)(=O)Nc2ccccc2)c1)NO

1: 6.59; 2: 6.89; 3: 6.70

// input: 6 compounds below; output: pIC50 for each
1. O=C(/C=C/c1cccc(S(=O)(=O)NC(Cc2ccccc2)c2ccccc2)c1)NO (stereo not drawn)
2. Cc1ccc(NS(=O)(=O)c2cccc(/C=C/C(=O)NO)c2)cc1
3. COc1ccc(S(=O)(=O)Nc2cccc(/C=C/C(=O)NO)c2)cc1OC
4. O=C(/C=C/c1ccc(NS(=O)(=O)c2ccc(-c3ccccc3)cc2)cc1)NO
5. O=C(/C=C/c1cccc(S(=O)(=O)NCc2ccc3c(c2)OCO3)c1)NO
6. COc1ccc(CCNS(=O)(=O)c2cccc(/C=C/C(=O)NO)c2)cc1OC

1. 6.00
2. 6.52
3. 5.40
4. 6.30
5. 7.00
6. 5.96

----------
Could you please report measured pIC50 for the items listed next?
Test system: JURKAT human T-cell line
ASSAY_PROCEDURE: Secondary assay: cell proliferation WST-1, Jurkat
Assay type: cell-based
PROTOCOL_CONDITIONS: Homo sapiens, Table 2, 48 h, read-out: Cell Proliferation Inhibition WST-1 (IC50 unless otherwise specified) Jurkat
Give bare numbers, as −log10 of the molar value.

Illustrative cases are given below, each with its answer.
| SMILES_TEXT | TEST_TARGET | pIC50 |
| --- | --- | --- |
| O=C(/C=C/c1cccc(S(=O)(=O)NCc2ccco2)c1)NO | JURKAT human T-cell line | 6.38 |
| O=C(/C=C/c1cccc(S(=O)(=O)NCc2cccnc2)c1)NO | JURKAT human T-cell line | 6.00 |
| O=C(/C=C/c1cccc(S(=O)(=O)NCc2ccccc2)c1)NO | JURKAT human T-cell line | 6.63 |
| O=C(/C=C/c1cccc(S(=O)(=O)Nc2ccccc2-c2ccccc2)c1)NO | JURKAT human T-cell line | 6.21 |
| O=C(/C=C/c1cccc(S(=O)(=O)NC2Cc3ccccc3C2)c1)NO | JURKAT human T-cell line | 7.13 |

Count: 4. Required value per item: pIC50.
1. COc1ccc(S(=O)(=O)Nc2ccc(/C=C/C(=O)NO)cc2)cc1OC
2. O=C(/C=C/c1cccc(S(=O)(=O)Nc2ccc(OC(F)F)cc2)c1)NO
3. O=C(/C=C/c1cccc(NS(=O)(=O)/C=C/c2ccccc2)c1)NO
4. O=C(/C=C/c1cccc(S(=O)(=O)NCCc2ccccc2)c1)NO

6.22
6.52
6.37
6.68

----------
READOUT_KIND: melting point

Solved entries:
| SMILES_TEXT | melting point |
| --- | --- |
| CN(c1ccccc1)S(=O)(=O)CCCCCC(=O)NO | 121 to 122 °C |
| O=C(/C=C/c1ccccc1S(=O)(=O)Nc1cccc2ccccc12)NO | 186 to 187 °C |

Could you tell me melting point for each of these compounds? They are listed below.
1. O=C(CCCCCCCS(=O)(=O)N(Cc1ccccc1)c1ccccc1)NO
2. CN(c1ccccc1)S(=O)(=O)CCCCCCC(=O)NO
3. CCn1c2ccccc2c2cc(NS(=O)(=O)c3cccc(/C=C/C(=O)NO)c3)ccc21
4. O=C(/C=C/C#Cc1cccc(S(=O)(=O)Nc2ccccc2)c1)NO
5. O=C(/C=C/c1ccc(S(=O)(=O)Nc2ccccc2)cc1)NO

1: 119 to 119.5 °C; 2: 69 to 70 °C; 3: 130 to 133 °C; 4: 88 to 90 °C; 5: 176 to 177.5 °C

Answer for every listed entry: what is its melting point? The entries follow.
1. O=C(/C=C/c1cccc(S(=O)(=O)Nc2ccccc2F)c1)NO
2. Cc1ccc(S(=O)(=O)Nc2cccc(/C=C/C(=O)NO)c2)cc1
3. COc1ccccc1NS(=O)(=O)c1cccc(/C=C/C(=O)NO)c1
4. O=C(/C=C/c1cccc(S(=O)(=O)NC(c2ccccc2)c2ccccc2)c1)NO
5. O=C(/C=C/c1cccc(S(=O)(=O)Nc2ccc(Br)cc2)c1)NO

102 to 103 °C
147 °C
181 °C
180 °C
204 °C
